System: MDCK
Assay: Cytotoxicity against MDCK cells assessed as reduction in cell viability after 3 days by MTS assay
Format: cell-based, Canis lupus familiaris
Conditions: dog, mdck, 72 h
observed property: CC50 (µM)
Reply numerically in µM, unit not repeated.

A selection of reference data follows.
INSERT INTO measurements (compound, target_system, observed_result) VALUES
  ('CCCCCCCCS(=O)(=O)N[C@H]1C(=O)N[C@@H]2Cc3ccc(c(Cl)c3)Oc3cc4cc(c3O)Oc3ccc(cc3Cl)[C@@H](O[C@@H]3O[C@H](CO)[C@@H](O)[C@H](O)[C@H]3NC(C)=O)[C@H]3NC(=O)[C@H](NC(O)[C@@H]4NC(=O)[C@@H](NC2=O)c2cc(O)cc(c2)Oc2cc1ccc2O)c1ccc(O)c(c1)-c1c(O)cc(O)cc1[C@H](C(=O)O)NC3=O (stereo partly drawn)', 'MDCK', 14),
  ('CC(=O)N[C@H]1[C@H](O[C@@H]2c3ccc(c(Cl)c3)Oc3cc4cc(c3O)Oc3ccc(cc3Cl)C[C@H]3NC(=O)[C@H](NS(=O)(=O)c5ccc(-c6ccccc6)cc5)c5ccc(O)c(c5)Oc5cc(O)cc(c5)[C@H](NC3=O)C(=O)N[C@H]4C(O)N[C@H]3C(=O)N[C@H]2C(=O)N[C@@H](C(=O)O)c2cc(O)cc(O)c2-c2cc3ccc2O)O[C@H](CO)[C@@H](O)[C@@H]1O (stereo partly drawn)', 'MDCK', 15);

Let's switch to this compound now.
Specify measured CC50 for CCCCSC1=C(SCCCC)C(=O)N(Cc2cn(C3C(=O)N[C@@H]4Cc5ccc(c(Cl)c5)Oc5cc6cc(c5O)Oc5ccc(cc5Cl)[C@@H](O[C@@H]5O[C@H](CO)[C@@H](O)[C@H](O)[C@H]5NC(C)=O)[C@H]5NC(=O)[C@H](NC(O)[C@@H]6NC(=O)[C@@H](NC4=O)c4cc(O)cc(c4)Oc4cc3ccc4O)c3ccc(O)c(c3)-c3c(O)cc(O)cc3[C@H](C(=O)O)NC5=O)nn2)C1=O (stereo partly drawn) .
28

* * *

Tested on: Influenza B virus
Assay: Antiviral activity against Influenza B virus B/Ned/537/05 infected in MDCK cells after 3 days by MTS assay
Type: functional, organism-based
Settings: B/Ned/537/05, MDCK, 72 h
observed property: EC50 (µM)
Supply the numeric figure in µM, leaving out any unit text.

INSERT INTO results (compound, observed_property, units_label, observed_result) VALUES
  ('CCCCCCSC1=C(SCCCCCC)C(=O)N(CCOCCOCCOCCOCc2cn(C3C(=O)N[C@@H]4Cc5ccc(c(Cl)c5)Oc5cc6cc(c5O)Oc5ccc(cc5Cl)[C@@H](O[C@@H]5O[C@H](CO)[C@@H](O)[C@H](O)[C@H]5NC(C)=O)[C@H]5NC(=O)[C@H](NC(O)[C@@H]6NC(=O)[C@@H](NC4=O)c4cc(O)cc(c4)Oc4cc3ccc4O)c3ccc(O)c(c3)-c3c(O)cc(O)cc3[C@H](C(=O)O)NC5=O)nn2)C1=O (stereo not given in full)', 'EC50', 'µM', 3.6);

Could you please provide reported EC50 for CCCSC1=C(SCCC)C(=O)N([C@H]2C(=O)N[C@@H]3Cc4ccc(c(Cl)c4)Oc4cc5cc(c4O)Oc4ccc(cc4Cl)[C@@H](O[C@@H]4O[C@H](CO)[C@@H](O)[C@H](O)[C@H]4NC(C)=O)[C@H]4NC(=O)[C@H](NC(O)[C@@H]5NC(=O)[C@@H](NC3=O)c3cc(O)cc(c3)Oc3cc2ccc3O)c2ccc(O)c(c2)-c2c(O)cc(O)cc2[C@H](C(=O)O)NC4=O)C1=O (stereo not given in full) ? Thanks!
7.2

FYI, the data here is from ChEMBL document CHEMBL4270630.
